Reference source: ChEMBL document CHEMBL1142469

Recorded Tm for the following substances
Test system: Human immunodeficiency virus 1
protocol-text: Binding affinity to HIV1 heptad repeat 1 peptide N36 assessed as melting temperature of drug-HR1 peptide complex
Provide a numeric answer, followed by its unit.

The measured Tm associated with H-WEEWDKKIEEYTKKIEELIKKSEEQQKKNEEELKK-OH reads 71.5 °C

Tm measured on H-WMEWDREINNYTSLIHSLIEESQNQQEKN-OH = 48.5 °C

Reported Tm of H-WEEWDKKIEEYTKKIEELIKKS-OH : 63.5 °C

substance H-WMEWDREINNYTSLIHSLIEES-OH , Tm observed: 38.5 °C

Tm measured on H-WEEWDKKIEEYTKKIEELIKKSEEQQKKN-OH = 65 °C
